- Tested on: Nanoluciferase (engineered Oplophorus gracilirostris luciferase)
- experiment.summary: Primary Nanoluciferase (NLuc) qHTS assay for identification of artifact compounds. (AID 1845222);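 further: NLuc secreted into diluted conditioned medium of S16 cells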
- condition.set: NLuc-conditioned medium, Nano-Glo luminescence, 5 min; series mostly up to 54.1 µM
The source made the active and inactive calls. The call rests on the fitted dose curve; in most records, active means well fitted inhibition curve with a large enough effect; inconclusive means small, poorly fitted or top-dose-only effect; inactive means flat fitted curve, though single readings scatter.

{"compound": "CC(=O)O[C@H]1[C@@H](O)[C@H](O[C@H]2[C@@H]3C=CO[C@@H](O[C@H]4O[C@@H](CO)[C@H](O)[C@@H](O)[C@@H]4O)[C@@H]3[C@@]3(CO)O[C@@H]23)O[C@@H](C)[C@@H]1OC(=O)/C=C/c1ccccc1", "target": "Nanoluciferase (engineered Oplophorus gracilirostris luciferase)", "activity, negative = inhibition": "inactive"}
{"compound": "NCc1c[nH]c(=S)n1[C@@H]1CCc2c(F)cc(F)cc2C1", "target": "Nanoluciferase (engineered Oplophorus gracilirostris luciferase)", "activity, negative = inhibition": "inactive"}
{"compound": "Cc1cc(Nc2cc(N3CCN(C)CC3)nc(/C=C/c3ccccc3)n2)n[nH]1", "target": "Nanoluciferase (engineered Oplophorus gracilirostris luciferase)", "activity, negative = inhibition": "inactive"}
{"compound": "C=C1CC[C@H]2[C@@](C)(CCC(O)[C@@]2(C)CO)[C@@H]1CCC1=CCOC1=O (some centres undefined)", "target": "Nanoluciferase (engineered Oplophorus gracilirostris luciferase)", "activity, negative = inhibition": "inactive"}
